Data provenance is patent US10696671B2.

Biological target: proton pump (H+/K+-ATPase), porcine gastric vesicles (Sus scrofa)
Construct: reaction buffer (50 mmol/L Tris-Hepes buffer, pH 6.4) containing porcine gastric vesicles
Sequence (P19156 2-1034 limits assumed): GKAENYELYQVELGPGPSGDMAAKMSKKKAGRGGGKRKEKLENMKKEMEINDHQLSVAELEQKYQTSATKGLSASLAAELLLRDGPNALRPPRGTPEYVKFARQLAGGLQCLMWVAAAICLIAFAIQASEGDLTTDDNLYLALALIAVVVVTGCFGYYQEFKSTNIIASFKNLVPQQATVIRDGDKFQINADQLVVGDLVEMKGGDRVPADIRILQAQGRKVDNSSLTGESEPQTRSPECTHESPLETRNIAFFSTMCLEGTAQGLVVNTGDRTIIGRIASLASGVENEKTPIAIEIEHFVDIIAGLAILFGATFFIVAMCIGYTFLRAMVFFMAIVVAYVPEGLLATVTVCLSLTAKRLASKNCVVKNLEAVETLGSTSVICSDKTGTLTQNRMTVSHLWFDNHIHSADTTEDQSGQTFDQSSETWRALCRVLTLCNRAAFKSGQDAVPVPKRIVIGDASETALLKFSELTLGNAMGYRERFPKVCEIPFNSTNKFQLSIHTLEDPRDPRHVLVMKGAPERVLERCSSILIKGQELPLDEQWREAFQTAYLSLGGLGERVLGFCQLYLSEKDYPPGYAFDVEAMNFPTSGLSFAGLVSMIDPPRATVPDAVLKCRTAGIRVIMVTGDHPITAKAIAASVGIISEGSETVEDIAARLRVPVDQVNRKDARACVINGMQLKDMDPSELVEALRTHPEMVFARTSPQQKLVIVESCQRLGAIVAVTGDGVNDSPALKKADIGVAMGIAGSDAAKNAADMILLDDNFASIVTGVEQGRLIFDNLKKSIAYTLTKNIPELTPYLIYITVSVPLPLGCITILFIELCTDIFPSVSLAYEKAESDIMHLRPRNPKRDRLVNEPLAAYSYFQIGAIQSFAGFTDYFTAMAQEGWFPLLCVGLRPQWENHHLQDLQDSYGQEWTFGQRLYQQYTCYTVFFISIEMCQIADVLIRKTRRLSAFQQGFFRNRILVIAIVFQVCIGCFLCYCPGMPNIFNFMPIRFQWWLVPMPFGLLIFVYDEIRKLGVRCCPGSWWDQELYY
Sequence (P18434 whole entry partner): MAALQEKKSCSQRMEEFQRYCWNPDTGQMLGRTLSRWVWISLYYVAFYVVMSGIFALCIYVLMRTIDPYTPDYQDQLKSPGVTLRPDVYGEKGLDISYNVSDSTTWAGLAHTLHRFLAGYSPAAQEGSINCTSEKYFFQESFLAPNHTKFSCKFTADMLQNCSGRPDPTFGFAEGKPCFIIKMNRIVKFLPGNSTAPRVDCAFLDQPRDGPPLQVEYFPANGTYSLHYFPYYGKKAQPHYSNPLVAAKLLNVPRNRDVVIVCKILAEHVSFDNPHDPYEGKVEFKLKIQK
Assay: Inhibitory effects against proton pump (H+/K+-ATPase) activity, malachite green phosphate assay
Settings: pH 6.4, 37° C., K+-dependent activity
Can you tell me IC50 for the items I'm about to list?
Give just the number in nM; leave the unit off.

Task: Query IC50 on proton pump (H+/K+-ATPase), porcine gastric vesicles (Sus scrofa) for Cc1cccc(C)c1CNc1cc(C(=O)N2CC(C)(CO)C2)cn2c(C)c(C)nc12
Result: 104

Task: Now try Cc1ccc(Cl)c(C)c1CNc1cc(C(=O)N2CCC2)cn2c(C)c(C)nc12 .
Result: 81

Task: Now try CCOC1CN(C(=O)c2cc(NCc3c(C)cccc3C)c3nc(C)c(C)n3c2)C1 .
Result: 93

Task: Now try COCCOC1CN(C(=O)c2cc(NCc3c(C)cccc3C)c3nc(C)c(C)n3c2)C1 .
Result: 117

Task: Now try CC(=O)OC1CN(C(=O)c2cc(NCc3c(C)cccc3C)c3nc(C)c(C)n3c2)C1 .
Result: 128

Task: Now try Cc1cccc(C)c1CNc1cc(C(=O)N2CC3(COC3)C2)cn2c(C)c(C)nc12 .
Result: 79
